Provenance of the data: patent US10259810B2

molecular target: ΔF508-CFTR (Homo sapiens, UniProt P13569, DEL508-508); construct: host or cells: CFBE41o-, doxycycline-inducible; assay: CFTR cell surface levels using HRP-tagged ΔF508-CFTR expressing CFBE cells, in the presence of a co-corrector; format: cell-based; conditions: HRP-tagged ΔF508-CFTR CFBE cells, in the presence of 3 μM co-corrector; read-out: EC50
Sequence (P13569 with tags, fused parts or gaps DEL508-508): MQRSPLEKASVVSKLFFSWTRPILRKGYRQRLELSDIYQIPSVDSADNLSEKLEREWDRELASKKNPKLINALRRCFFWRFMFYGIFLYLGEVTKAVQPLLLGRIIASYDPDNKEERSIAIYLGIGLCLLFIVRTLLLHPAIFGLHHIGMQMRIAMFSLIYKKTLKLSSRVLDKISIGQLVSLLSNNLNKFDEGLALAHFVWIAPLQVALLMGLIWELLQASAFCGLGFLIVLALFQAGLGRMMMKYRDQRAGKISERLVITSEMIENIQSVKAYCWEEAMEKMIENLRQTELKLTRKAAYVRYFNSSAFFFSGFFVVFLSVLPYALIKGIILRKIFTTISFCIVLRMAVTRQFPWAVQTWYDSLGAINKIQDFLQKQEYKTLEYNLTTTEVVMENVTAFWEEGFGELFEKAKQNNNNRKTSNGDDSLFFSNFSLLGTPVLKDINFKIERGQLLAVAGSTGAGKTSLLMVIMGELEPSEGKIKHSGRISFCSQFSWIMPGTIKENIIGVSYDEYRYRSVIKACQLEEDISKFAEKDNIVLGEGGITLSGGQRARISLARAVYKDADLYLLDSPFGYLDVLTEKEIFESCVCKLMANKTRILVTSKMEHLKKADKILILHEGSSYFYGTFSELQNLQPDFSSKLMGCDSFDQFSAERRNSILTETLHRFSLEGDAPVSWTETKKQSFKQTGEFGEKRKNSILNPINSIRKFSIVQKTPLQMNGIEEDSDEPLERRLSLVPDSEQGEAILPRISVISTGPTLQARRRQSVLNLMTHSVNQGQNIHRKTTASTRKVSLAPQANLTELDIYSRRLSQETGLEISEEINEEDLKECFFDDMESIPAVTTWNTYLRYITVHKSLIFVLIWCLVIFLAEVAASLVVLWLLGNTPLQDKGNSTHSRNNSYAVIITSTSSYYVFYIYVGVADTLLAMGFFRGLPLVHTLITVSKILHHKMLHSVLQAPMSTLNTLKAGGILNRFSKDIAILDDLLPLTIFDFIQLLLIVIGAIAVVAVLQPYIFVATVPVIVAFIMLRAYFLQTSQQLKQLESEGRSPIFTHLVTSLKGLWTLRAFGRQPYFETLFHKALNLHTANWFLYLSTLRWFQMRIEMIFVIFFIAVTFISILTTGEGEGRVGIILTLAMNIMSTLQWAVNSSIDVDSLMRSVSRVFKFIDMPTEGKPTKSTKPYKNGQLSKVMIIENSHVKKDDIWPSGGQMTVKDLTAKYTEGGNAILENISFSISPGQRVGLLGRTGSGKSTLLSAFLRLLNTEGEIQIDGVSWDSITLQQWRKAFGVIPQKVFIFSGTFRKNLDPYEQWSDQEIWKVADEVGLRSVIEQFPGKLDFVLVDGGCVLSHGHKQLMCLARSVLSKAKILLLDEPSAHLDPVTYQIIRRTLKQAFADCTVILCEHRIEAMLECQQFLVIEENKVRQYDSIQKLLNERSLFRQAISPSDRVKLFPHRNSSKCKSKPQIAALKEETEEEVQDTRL
pEC50: −log10 of the molar value.
Quick reference for pEC50 among some compounds
measurement.label: pEC50

- compound: "CS(=O)(=O)NC(=O)c1cc(N2CC3(CCC3)C2)c2c(C3CCC3)nn(-c3ccccc3)c2n1"
  assay.value: 6.42
- compound: "COC1CN(C2CCN(c3cc(C(=O)NS(=O)(=O)N(C)C)nc4c3c(C3CCC3)nn4-c3ccc(F)cc3)CC2)C1"
  assay.value: 6.68
- compound: "CC(C)c1nn(-c2cccc(C(F)(F)F)c2)c2nc(C(=O)NS(C)(=O)=O)cc(-c3ccc(N(C)C4CCOCC4)nc3)c12"
  assay.value: 6.47
- compound: "CC(=O)N1CCC(F)(COc2cc(C(=O)NS(C)(=O)=O)nc3c2c(C2CCC2)nn3-c2ccccc2)CC1"
  assay.value: 6.40
- compound: "CC(=O)NCCS(=O)(=O)NC(=O)c1cc(N2CCC(N3CCOCC3)CC2)c2c(C3CCC3)nn(-c3ccc(F)cc3)c2n1"
  assay.value: 6.27
- compound: "CC(C)Oc1nn(C2CCCCC2)c2nc(C(=O)NS(C)(=O)=O)cc(-c3ccc(CN4CCN(C5CC5)CC4)cc3)c12"
  assay.value: 6.96
- compound: "COCC1CCN(c2cc(C(=O)NS(=O)(=O)c3cnn(C)c3)nc3c2c(C2CCC2)nn3-c2ccccc2)CC1"
  assay.value: 6.16
- compound: "COCC1CCN(c2cc(C(=O)NS(C)(=O)=O)nc3c2c(C(C)C)nn3CC2CCC2)CC1"
  assay.value: 6.28
- compound: "COCC1CCN(c2cc(C(=O)NS(=O)(=O)N3CCC(N4CCOCC4)CC3)nc3c2c(C2CCC2)nn3-c2ccccc2)CC1"
  assay.value: 7.31
- compound: "COCC1CCN(c2cc(C(=O)NS(=O)(=O)CCCO)nc3c2c(C2CCC2)nn3-c2ccccc2)CC1"
  assay.value: 7.09
- compound: "CS(=O)(=O)NC(=O)c1cc(N2CCC3(C2)CC3(F)F)c2c(C3CCC3)nn(-c3ccccc3)c2n1 (stereo not shown)"
  assay.value: 6.59
- compound: "Cc1cccc(-n2nc(C(C)C)c3c(N4CCC5(CCOCC5)C4)cc(C(=O)NS(C)(=O)=O)nc32)c1"
  assay.value: 6.51
- compound: "CCS(=O)(=O)NC(=O)c1cc(N2CCC(COC)CC2)c2c(C3CCC3)nn(-c3ccccc3)c2n1"
  assay.value: 7.59
- compound: "CN(C)S(=O)(=O)NC(=O)c1cc(N2CCC3C(CCN3C3CCC3)C2)c2c(C3CCC3)nn(-c3ccc(F)cc3)c2n1 (stereo not shown)"
  assay.value: 6.95
- compound: "CCS(=O)(=O)NC(=O)c1cc(-c2ccc(OC)cc2)c2c(C)nn(-c3cccc(C)c3)c2n1"
  assay.value: 6.03
- compound: "COCCN(C)c1ccc(-c2cc(C(=O)NS(C)(=O)=O)nc3c2c(C(C)C)nn3-c2cccc(N3CCOCC3)c2)cn1"
  assay.value: 6.59
- compound: "CN(C)S(=O)(=O)NC(=O)c1cc(N2CCC(N3CCC(O)CC3)CC2)c2c(C3CCC3)nn(-c3ccc(F)cc3)c2n1"
  assay.value: 6.14
- compound: "CCN(C)S(=O)(=O)NC(=O)c1cc(N2CCC(N3CCOCC3)CC2)c2c(C3CCC3)nn(-c3ccc(F)cc3)c2n1"
  assay.value: 7.25
- compound: "COC1CCCN(C2CCN(c3cc(C(=O)NS(=O)(=O)N(C)C)nc4c3c(C3CCC3)nn4-c3ccc(F)cc3)CC2)C1 (stereo not shown)"
  assay.value: 6.65

---

target: ΔF508-CFTR (Homo sapiens, UniProt P13569, DEL508-508); construct: host or cells: CFBE41o-, doxycycline-inducible; experiment: CFTR cell surface levels using HRP-tagged ΔF508-CFTR expressing CFBE cells, in the presence of a co-corrector; assay type: cell-based; conditions: HRP-tagged ΔF508-CFTR CFBE cells, in the presence of 3 μM co-corrector

- molecule: "CC(C)(C)S(=O)(=O)NC(=O)c1cc(N2CCC(CN3CCCC3)CC2)c2c(C3CCC3)nn(-c3ccccc3)c2n1"
  quantity.unit: "%"
  % Activation: 293.15
- molecule: "COCCS(=O)(=O)NC(=O)c1cc(N2CCN(CC(F)(F)F)CC2)c2c(C3CCC3)nn(-c3ccccc3)c2n1"
  quantity.unit: "%"
  % Activation: 285.4
- molecule: "COCCS(=O)(=O)NC(=O)c1cc(-c2ccc(N3CCOCC3)cc2)c2c(C(C)C)nn(C3CCOC3)c2n1 (centres unmarked)"
  quantity.unit: "%"
  % Activation: 199.75
- molecule: "CCOCC1(F)CCN(c2cc(C(=O)NS(C)(=O)=O)nc3c2c(C(C)C)nn3-c2ccc(F)cc2)CC1"
  quantity.unit: "%"
  % Activation: 336.5
- molecule: "COC1CCN(C2CCN(c3cc(C(=O)NS(=O)(=O)N4CCC4)nc4c3c(C3CCC3)nn4-c3ccc(F)cc3)CC2)CC1"
  quantity.unit: "%"
  % Activation: 466.83
- molecule: "Cc1nn(-c2ccc(F)c(F)c2)c2nc(C(=O)NS(C)(=O)=O)cc(-c3ccc(N4CCOCC4)cc3)c12"
  quantity.unit: "%"
  % Activation: 437.17
- molecule: "COC1CCN(c2cc(C(=O)NS(=O)(=O)CCC(F)(F)F)nc3c2c(C2CCC2)nn3-c2ccccc2)CC1"
  quantity.unit: "%"
  % Activation: 363.93
- molecule: "Cc1nn(C2CCCCC2)c2nc(C(=O)NS(C)(=O)=O)cc(-c3cnc(N(C)C)nc3)c12"
  quantity.unit: "%"
  % Activation: 338

---

biological target: ΔF508-CFTR (Homo sapiens, UniProt P13569, DEL508-508); construct: host or cells: CFBE41o-, doxycycline-inducible; assay: CFTR cell surface levels using HRP-tagged ΔF508-CFTR expressing CFBE cells, in the presence of a co-corrector; format: cell-based
pEC50: −log10 of the molar value.

- structure: "O=C(NS(=O)(=O)CCCN1CCOCC1)c1cc(OCC2CCOCC2)c2c(C3CCC3)nn(-c3ccccc3)c2n1"
  pEC50: 7.27
- structure: "CS(=O)(=O)NC(=O)c1cc(N2CCC(N3CCCCC3)CC2)c2c(C3CCC3)nn(-c3ccccc3)c2n1"
  pEC50: 6.57
- structure: "CC(=O)N1CC[C@@H]2CN(c3cc(C(=O)NS(=O)(=O)CCCN4CCOCC4)nc4c3c(C3CCC3)nn4-c3ccccc3)CC[C@@H]21"
  pEC50: 6.20
- structure: "CC(C)c1nn(-c2ccc(F)cc2)c2nc(C(=O)NS(C)(=O)=O)cc(N3CCC(N4CCOCC4)CC3)c12"
  pEC50: 6.32
- structure: "O=C(NS(=O)(=O)CCCN1CCOCC1)c1cc(N2CCC(N3CCCCC3)CC2)c2c(C3CCC3)nn(-c3ccccc3)c2n1"
  pEC50: 6.19
- structure: "CS(=O)(=O)NC(=O)c1cc(N2CCC(CCN3CCOCC3)CC2)c2c(C3CCC3)nn(-c3ccccc3)c2n1"
  pEC50: 7.42
- structure: "O=C(NS(=O)(=O)N1CCOCC1)c1cc(N2CCC(CN3CCCC3)CC2)c2c(C3CCC3)nn(-c3ccccc3)c2n1"
  pEC50: 6.90

---

Below, each entry is listed with its recorded % Activation.
Target: ΔF508-CFTR (Homo sapiens, UniProt P13569, DEL508-508)
Construct: host or cells: CFBE41o-, doxycycline-inducible
Test: CFTR cell surface levels using HRP-tagged ΔF508-CFTR expressing CFBE cells, in the presence of a co-corrector
Assay type: cell-based
Settings: HRP-tagged ΔF508-CFTR CFBE cells, in the presence of 3 μM co-corrector
Text: Measuring CFTR Cell Surface Levels Using HRP-Tagged ΔF508-CFTR Expressing CFBE Cells The HRP-tagged ΔF508-CFTR cell assay measures the expression of CFTR-ΔF508 at the plasma membrane. […] When HRP-tagged ΔF508-CFTR is present at the plasma membrane, the HRP enzyme activity can be measured. The amount of CFTR-ΔF508 that can be rescued to the plasma membrane is correlated with the amount of functional enzyme that can be measured. […]
measurement.label: % Activation (%)

- structure: "COCCS(=O)(=O)NC(=O)c1cc(N2CCC(COC)CC2)c2c(C(C)C)nn(-c3ccnc(N4CCOCC4)c3)c2n1"
  measurement.label: "% Activation"
  assay.value: 468.15
- structure: "CCS(=O)(=O)NC(=O)c1cc(-c2ccc(N3CCOCC3)cc2)c2c(C(C)C)nn(C3CCCCC3)c2n1"
  measurement.label: "% Activation"
  assay.value: 438.4
- structure: "CCS(=O)(=O)NC(=O)c1cc(-c2ccc(N3CCOCC3)cc2)c2c(C(C)C)nn(-c3ccc(F)c(F)c3)c2n1"
  measurement.label: "% Activation"
  assay.value: 438.2
